Origin of the recorded values: ChEMBL document CHEMBL1250553

- ASSAY DETAILS: Cytotoxicity against human A253 cells after 96 hrs by sulforhodamine B assay
- Type: functional, cell-based
- CONDITION SET: A253, 96 h
pIC50: −log10 of the molar value.
Classify as follows. Reported pIC50 greater than or equal to 5: met. Reported pIC50 below: not met.

>  <ENTRY SMILES>
C=C(C)[C@@H]1CC[C@]2([C@@H]3OC(=O)C=C3N3CCCC3)CC[C@]3(C)[C@H](CC[C@@H]4[C@@]5(C)CC[C@H](OC(C)=O)C(C)(C)[C@@H]5CC[C@]43C)[C@@H]12

>  <ASSIGNED LABEL>
met

$$$$
>  <ENTRY SMILES>
C=C(C)[C@@H]1CC[C@]2([C@H](O)c3cnn(C)c3C(=O)OC)CC[C@]3(C)[C@H](CC[C@@H]4[C@@]5(C)CC[C@H](OC(C)=O)C(C)(C)[C@@H]5CC[C@]43C)[C@@H]12

>  <ASSIGNED LABEL>
not met

$$$$
>  <ENTRY SMILES>
C=C(C)[C@@H]1CC[C@]2([C@H](O)C#CC(=O)OC)CC[C@]3(C)[C@H](CC[C@@H]4[C@@]5(C)CC[C@H](OC(C)=O)C(C)(C)[C@@H]5CC[C@]43C)[C@@H]12

>  <ASSIGNED LABEL>
met

$$$$
>  <ENTRY SMILES>
C=C(C)[C@@H]1CC[C@]2([C@@H]3OC(=O)C=C3N(C)C)CC[C@]3(C)[C@H](CC[C@@H]4[C@@]5(C)CC[C@H](OC(C)=O)C(C)(C)[C@@H]5CC[C@]43C)[C@@H]12

>  <ASSIGNED LABEL>
met

$$$$
>  <ENTRY SMILES>
C=C(C)[C@@H]1CC[C@]2([C@@H]3OC(=O)C=C3NC3CC3)CC[C@]3(C)[C@H](CC[C@@H]4[C@@]5(C)CC[C@H](OC(C)=O)C(C)(C)[C@@H]5CC[C@]43C)[C@@H]12

>  <ASSIGNED LABEL>
met

$$$$
>  <ENTRY SMILES>
C=C(C)[C@@H]1CC[C@]2([C@H](O)/C=C\CO)CC[C@]3(C)[C@H](CC[C@@H]4[C@@]5(C)CC[C@H](OC(C)=O)C(C)(C)[C@@H]5CC[C@]43C)[C@@H]12

>  <ASSIGNED LABEL>
not met

$$$$

* * *

- Tested on: SW-1736
- ASSAY DETAILS: Cytotoxicity against human SW1736 cells after 96 hrs by sulforhodamine B assay
- Assay type: functional, cell-based
- CONDITION SET: SW-1736, 96 h
pIC50: −log10 of the molar value.
PARAMETER MEASURED: pIC50

>  <ENTRY SMILES>
C=C(C)[C@@H]1CC[C@]2([C@H](O)/C=C\CO)CC[C@]3(C)[C@H](CC[C@@H]4[C@@]5(C)CC[C@H](OC(C)=O)C(C)(C)[C@@H]5CC[C@]43C)[C@@H]12

>  <ASSAY RESULT>
5.05

$$$$
>  <ENTRY SMILES>
C=C(C)[C@@H]1CC[C@]2([C@H](O)C#CCO)CC[C@]3(C)[C@H](CC[C@@H]4[C@@]5(C)CC[C@H](OC(C)=O)C(C)(C)[C@@H]5CC[C@]43C)[C@@H]12

>  <ASSAY RESULT>
4.94

$$$$
>  <ENTRY SMILES>
C=C(C)[C@@H]1CC[C@]2([C@H](O)c3c(C(=O)OCC)n[nH]c3C(=O)OC)CC[C@]3(C)[C@H](CC[C@@H]4[C@@]5(C)CC[C@H](OC(C)=O)C(C)(C)[C@@H]5CC[C@]43C)[C@@H]12

>  <ASSAY RESULT>
4.72

$$$$
>  <ENTRY SMILES>
C=C(C)[C@@H]1CC[C@]2([C@@H]3OC(=O)C=C3NC3CC3)CC[C@]3(C)[C@H](CC[C@@H]4[C@@]5(C)CC[C@H](OC(C)=O)C(C)(C)[C@@H]5CC[C@]43C)[C@@H]12

>  <ASSAY RESULT>
5.41

$$$$
>  <ENTRY SMILES>
C=C(C)[C@@H]1CC[C@]2([C@H](O)c3cnn(C)c3C(=O)OC)CC[C@]3(C)[C@H](CC[C@@H]4[C@@]5(C)CC[C@H](OC(C)=O)C(C)(C)[C@@H]5CC[C@]43C)[C@@H]12

>  <ASSAY RESULT>
4.64

$$$$
